These entries and their values trace back to PubChem BioAssay (NCATS).

Test system: JEG-3
test summary: Primary qHTS to identify gynecologic anti-cancer compounds using libraries of approved drugs and bioactive compounds (AID 1345084); also: % is scaled to controls: 0 for no effect and ±100 for the full control effect; nearly all actives have a fitted effect of over 55% in size
applied conditions: Gynecologic cancer cell panel viability, ATPlite luminescence, 48 h; series mostly up to 57.5 µM
Source text: National Center for Advancing Translational Sciences [NCATS] Assay Overview: Chemotherapeutic drug responses vary from cancer to cancer and from patient to patient. […] ATPlite is a luminescence based assay reliant on the conversion of a luciferase substrate to light in the presence of ATP. As a cytotoxic compound will suppress growth and decrease the number of cells, the concentration of ATP will decrease, and less light signal will be detected in the well. […]
Records with an inconclusive call do not appear. Activity calls are given as the source filed them. Calls follow the shape of the dose curve; as a rule, active = well fitted cell-killing curve with a large enough effect; inconclusive = small, poorly fitted or top-dose-only effect, or effect the other way; inactive = flat fitted curve, though single readings scatter.
result type: activity change, negative = cytotoxicity

Example entries and their recorded answers appear below.
CO[C@H]1C=C2C(CC[C@H](O[C@@H]3O[C@H](CO)[C@@H](O)[C@@H](O)[C@H]3O)C2(C)C)[C@]2(C)CC[C@]3(C)C([C@H](C)C(O)C(C=C(C)C)O[C@@H]4O[C@H](CO)[C@@H](O)[C@@H](O)[C@H]4O)CC[C@@]3(C)C12 (stereo partly drawn)    -6.82% [at 11.6 µM] (inactive)
O=C(O)C[C@@H](NC(=O)c1cc(-c2ccc(-c3ccncc3)cc2)cs1)c1ccccc1    inactive
CC1NC(=O)C(Cc2c[nH]c3ccccc23)NC1=O (stereo not drawn)    inactive
C=C(C)[C@@H](C)[C@H]1O[C@]23C[C@]4(CO2)C(CCC2[C@@]5(C)CC[C@H](O[C@@H]6OC[C@H](O)[C@H](O[C@@H]7O[C@H](CO)[C@@H](O)[C@H](O)[C@H]7O)[C@H]6O[C@@H]6O[C@@H](CO)[C@H](O)[C@H]6O)C(C)(C)C5CC[C@]24C)C3[C@@](C)(O)[C@@H]1OC(C)=O (stereo partly drawn)    10.2% [at 11.6 µM] (inactive)
CC1=C2C3OC(=O)C(C)C3(O)CCC2(C)CCC1=O (stereo not drawn)    inactive

Q) Returns the measured activity change, negative = cytotoxicity for the input molecule. Input: CCC(C)C(=O)O[C@@H]1[C@@H](O)[C@@H](O[C@H]2O[C@H](CO)[C@@H](O)[C@H](O)[C@H]2O)O[C@H](CO)[C@H]1O (stereo partly drawn)
A) inactive

Q) Lookup Cc1c(-c2ccnn2C)cc(C(=O)NCc2ccc(S(C)(=O)=O)cn2)c(=O)n1-c1cccc(C(F)(F)F)c1
A) inactive

Q) Lookup C[C@H]1C[C@H]2[C@@H]3CCC4=CC(=O)C=C[C@]4(C)[C@@]3(F)[C@@H](O)C[C@]2(C)[C@@]1(O)C(=O)COP(=O)(O)O
A) inactive

Q) Lookup CC1(C)CCCC2(C)C3=C(C(=O)OC3O)C(O)CC12 (stereo not drawn)
A) inactive

Q) Lookup C=C1CCC[C@]2(C)C[C@]3(O)OC(=O)C(C)=C3C[C@@H]12
A) inactive

Q) Lookup CCC(C)/C=C(C)/C=C/C1=CC2=C(Cl)C(=O)C(C)(OC(C)=O)C(=O)C2=CN1CCCC(=O)O (stereo not drawn)
A) inactive

Q) Lookup CC[C@H]1OC(=O)[C@H](C)[C@@H](OC2C[C@@](C)(OC)[C@@H](O)[C@H](C)O2)[C@H](C)[C@@H](OC2O[C@H](C)C[C@H](NC)[C@H]2O)[C@](C)(O)C[C@@H](C)CN(C)[C@H](C)[C@@H](O)[C@]1(C)O (stereo partly drawn)
A) inactive

Q) Lookup COC(=O)[C@]12C(=O)C(C)=C(O)[C@@]1(C)C(C)=CC1[C@@]34CC[C@@H](OC(C)=O)C(C)(C)C3[C@H](C[C@]12C)OC4=O (stereo partly drawn)
A) inactive
